Value source: the nanobody polyreactivity screen of Harvey et al. (2022)

assay: yeast display, Sf9 membrane polyspecificity reagent, FACS + sequencing; frameworks hold sequencing errors
metric: polyreactivity (PSR sort gate)

Here is how some sequences turned out for polyreactivity (PSR sort gate).
- sequence.input: "QDQLVESGGGLVQAGGSLRLSCAASGRTFRYNAMGWYRQAPGKERELVAAISGRGSSTYYADSVKGRFTISRDNAKNTVYLQMNSLKPEETAVYYCAALPASVRRPGWHDYWGQGTQVTVSS"
  experimental.value: "high polyreactivity"
- sequence.input: "QVQLVESGGGLVQAGGSLRLSCAASGRIFRYYAMGWYRQAPGKERELVAAIRWTAGSTYYADSVKGRFTISRDNAKNTVYLQMNSLKPEDTAVYYCATDVWKYGRYEYWGQGTLVTVSS"
  experimental.value: "low polyreactivity"
- sequence.input: "QVQLVESGGGLVQAGGSLRLSCAASGRIIYGNAMGWYRQAPGKERELVAAITSGGSTNYADSVKGRFTISRDNAKNTVYLQMNSLKPEDTAVYYCNAVVYSPYRYEYWGQGTQVTVSS"
  experimental.value: "low polyreactivity"
- sequence.input: "QVQLVESGGGLVQAGGSLSLSCAASGFTFAFYAMGWYRQAPGKERELVAAISWDGVTTYYADSVKGRFTISRDNAKNTVYLQMNSLKPEDTAVYYCAADYPDYAGSFWPSGMYYWGQGTQVTVSS"
  experimental.value: "low polyreactivity"

Respond only with polyreactivity (PSR sort gate) recorded for QVQLVESGGGLVQAGGSLRLSCAASGGTFSVYAMGWYRQAPGKEREFVASITYGGGITYYADSVKGRFTISRDNAKNTVYLQMNSLKPEDTAVYYCAVDRRVLWYDMDYWGQGTQVTVSS
high polyreactivity
